Every entry's value here was drawn from the supplement of paper PMC9112550.

- System: Escherichia coli TOP10
- run description: shrunken log2 fold change of peptide-encoding DNA abundance (4.5 h post-induction vs induction); higher = less antimicrobial activity (less host growth inhibition)
- assay conditions: time post-induction: 4.5 h; library: site-saturation at positions 5, 18, 19, 20
Give shrunken log2 fold change for every item shown.
Give bare numbers.

input_sequence=RRIRQRPPRLPRPRPRPVLHPRP test_result=-0.149
input_sequence=RRIRNRPPRLPRPRPRPARNPRP test_result=-0.0209
input_sequence=RRIRKRPPRLPRPRPRPNMRPRP test_result=0.334
input_sequence=RRIRKRPPRLPRPRPRPNTVPRP test_result=0.126

State recorded shrunken log2 fold change for all listed sequences.
1. RRIRMRPPRLPRPRPRPANVPRP
2. RRIRMRPPRLPRPRPRPQKYPRP
3. RRIRHRPPRLPRPRPRPAFVPRP
4. RRIRIRPPRLPRPRPRPGLYPRP
5. RRIRKRPPRLPRPRPRPLEMPRP
6. RRIRERPPRLPRPRPRPGEIPRP
7. RRIRKRPPRLPRPRPRPVIHPRP

1: -0.0273; 2: 0.136; 3: 0.113; 4: -0.0503; 5: 0.659; 6: 0.0895; 7: -0.0677

----------
- System: Escherichia coli TOP10
- run description: shrunken log2 fold change of peptide-encoding DNA abundance (4.5 h post-induction vs induction); higher = less antimicrobial activity (less host growth inhibition)
- assay conditions: time post-induction: 4.5 h; library: site-saturation at positions 5, 18, 19, 20
Give shrunken log2 fold change for every item shown.

input_sequence=RRIRRRPPRLPRPRPRPLFDPRP readout_label="shrunken log2 fold change" test_result=0.136
input_sequence=RRIRVRPPRLPRPRPRPCYEPRP readout_label="shrunken log2 fold change" test_result=-0.246
input_sequence=RRIRPRPPRLPRPRPRPGSYPRP readout_label="shrunken log2 fold change" test_result=0.0254

Now, please, on to the next sequence.
Fill blank: measured shrunken log2 fold change of the sequence RRIRHRPPRLPRPRPRPCPIPRP is ____.
-0.0539

----------
- Test system: Escherichia coli TOP10
- run description: shrunken log2 fold change of peptide-encoding DNA abundance (4.5 h post-induction vs induction); higher = less antimicrobial activity (less host growth inhibition)
- assay conditions: time post-induction: 4.5 h; library: site-saturation at positions 5, 18, 19, 20
Everything with shrunken log2 fold change lower than -0.01 is no; everything else, including exactly -0.01, is yes.

Worked set:
input_sequence=RRIRHRPPRLPRPRPRPDVIPRP class=yes
input_sequence=RRIRYRPPRLPRPRPRPDSLPRP class=no
input_sequence=RRIRQRPPRLPRPRPRPEDNPRP class=no
input_sequence=RRIRHRPPRLPRPRPRPAQKPRP class=no
input_sequence=RRIRHRPPRLPRPRPRPFGRPRP class=no

API: above_or_equal(metric=shrunken log2 fold change, cutoff=-0.01) for item RRIRSRPPRLPRPRPRPMRIPRP
yes

----------
- Tested on: Escherichia coli TOP10;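 note: peptides expressed intracellularly from a pBAD plasmid library in pooled LB shake-flask culture, induced with 0.3% L-arabinose, DNA abundance read by NGS, three biological replicates, DESeq2 with apeglm shrinkage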
- run description: shrunken log2 fold change of peptide-encoding DNA abundance (4.5 h post-induction vs induction); higher = less antimicrobial activity (less host growth inhibition)
- assay conditions: time post-induction: 4.5 h; library: site-saturation at positions 5, 18, 19, 20
Everything with shrunken log2 fold change lower than 0.2 is f; everything else, including exactly 0.2, is t.

input_sequence=RRIRVRPPRLPRPRPRPGRWPRP class=t
input_sequence=RRIRDRPPRLPRPRPRPREEPRP class=t
input_sequence=RRIRIRPPRLPRPRPRPFAMPRP class=f

Switching to the query record.
API: above_or_equal(metric=shrunken log2 fold change, cutoff=0.2) for item RRIRARPPRLPRPRPRPWWYPRP
f
